# TARGET_DESC: T1, hMFI2 Tf-like Domain 2 (TLD2), amino acids 366-709, displayed on yeast (human, UniProt P08582 366-709)
# T1 construct: also called TFLD2; transferrin-like domain 2
# T1 sequence: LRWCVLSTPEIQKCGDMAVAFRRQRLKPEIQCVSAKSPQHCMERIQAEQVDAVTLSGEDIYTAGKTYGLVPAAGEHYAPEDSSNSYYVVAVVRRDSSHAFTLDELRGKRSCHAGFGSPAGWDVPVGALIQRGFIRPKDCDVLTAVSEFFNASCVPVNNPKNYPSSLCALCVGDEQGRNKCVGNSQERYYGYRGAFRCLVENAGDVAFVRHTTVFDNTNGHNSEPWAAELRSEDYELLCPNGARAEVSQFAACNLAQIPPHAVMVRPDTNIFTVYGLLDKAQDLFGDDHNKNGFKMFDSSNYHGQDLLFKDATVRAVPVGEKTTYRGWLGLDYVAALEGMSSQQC
# PROTOCOL_DETAILS: flow cytometry on yeast displaying hMFI2 domains

- BINDER: "SC57.18 (antibody, V domains shown) VH: EIQLQQSGPEMVKPGASVKVTCKASGYSFTDFNMHWMKQSHGKSLEWIGYIDPYKGGISYNQKFKGRATLTVDKSSSTAFMHLNSLTSDDSAVYYCARDYYGSRFPYYFDYWGQGTTLTVSS VL: DVVMTQTPLSLPVSLGDQASISCRSSQSLVHSNGNTYLHWYLQKPGQSPKLLIYRVSNRFSGVPDRFSGSGSGTDFTLKISRVEAEDLGVYLCSQSTHVPLTFGAGTKLELK"
  binding result: "binds"
- BINDER: "SC57.17 (antibody, V domains shown) VH: EVQLQQSGAELVKPGASVKLSCTASGFNIKDTYMHWVKQRPEQGLEWIGRIDPANVNTSDDPKFQGKATIAADTSSNTVYLQLSSLTSEDTAVYYCARDYRYDGYYYAMDYWGQGTSVTVSS VL: DIQMTQTTSSLSASLGDRVTISCSASQDINNYLNWYQQKPDGTVKLLIHYTSSLHSGVPSRFSGSGSGTDYSLTISNLEPEDIATYYCQQYSKVPWTFGGGTKLEIK"
  binding result: "binds"
- BINDER: "SC57.25 (antibody, V domains shown) VH: EIQLQQSGPEMVKPGASVKVTCKASGYSFTDFNMHWMKQSHGKSLEWIGYIDPYKGGISYNQKFKGRATLTVDKSSSTAFMHLNSLTSDDSAVYYCARDYYGSRFPYYFDYWGQGTTLTVSS VL: DVVMTQTPLSLPVSLGDQASISCRSSQSLVHSNGNTYLHWYLQKPGQSPKLLIYRVSNRFSGVPDRFSGSGSGTDFTLKISRVEAEDLGVYLCSQSTHVPLTFGAGTKLELK"
  binding result: "binds"
